# Test system: Trypanosoma cruzi
# protocol description: Trypanocidal activity against Trypanosoma cruzi Y epimastigotes after 72 hrs by MTT assay
# Format: functional, organism-based
recorded metric: IC50
Please answer using the number first and the unit second.

Reference set, count: 2
CC(C)=CCCC1(C)C=Cc2cc(C(=O)O)cc(CC=C(C)C)c2O1 (racemic; form 1) [GAUDICHAUDIANIC ACID] :: 111 µM
CC(C)=CCCC1(C)C=Cc2cc(C(=O)O)cc(CC=C(C)C)c2O1 (stereo in doubt; 1) [GAUDICHAUDIANIC ACID] :: 55.8 µM

Next compound, IC50 to be filled in.
-- ask Fill in: IC50 of CC(C)=CCCC1(C)C=Cc2cc(C(=O)O)cc(CC=C(C)C)c2O1 (racemic; form 2) [GAUDICHAUDIANIC ACID] is ___
-- reply 197 µM
